- systemUnderTest: CYP2B6 (Homo sapiens)
- Sequence (P20813 whole entry): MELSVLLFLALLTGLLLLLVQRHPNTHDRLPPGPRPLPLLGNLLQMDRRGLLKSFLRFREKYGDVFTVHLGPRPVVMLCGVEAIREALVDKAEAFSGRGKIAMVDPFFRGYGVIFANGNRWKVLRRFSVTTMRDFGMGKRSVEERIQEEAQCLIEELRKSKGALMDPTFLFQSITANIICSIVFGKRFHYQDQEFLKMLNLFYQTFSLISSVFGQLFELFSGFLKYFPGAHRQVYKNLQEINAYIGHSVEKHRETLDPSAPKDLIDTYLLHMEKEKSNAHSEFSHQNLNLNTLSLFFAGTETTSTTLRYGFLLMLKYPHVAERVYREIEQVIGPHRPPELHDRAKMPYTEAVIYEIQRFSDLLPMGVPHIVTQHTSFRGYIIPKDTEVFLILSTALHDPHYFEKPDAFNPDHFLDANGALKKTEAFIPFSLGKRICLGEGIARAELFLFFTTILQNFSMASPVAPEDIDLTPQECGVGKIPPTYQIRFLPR
- testName: Ratio of IC50 for human liver microsome CYP2B6 in absence of NADPH to IC50 for human liver microsome CYP2B6 in presence of NADPH
- measurementContext: liver microsomes, read-out: Ratio IC50
valueKind: IC50 shift

In plain terms, C#CCN(Cc1ccc(F)cc1)c1cc(C)c(NC(=O)OC)c(C)c1 has a documented IC50 shift of > 1.5

---

- testName: Half life in Sprague-Dawley rat at 2 mg/kg, po measured upto 24 hrs by LC-MS/MS method
- Assay type: ADME, organism-based
- measurementContext: in vivo
valueKind: half-life (h)
Form entry: value (h) — number only.

In plain terms, C#CCN(Cc1ccc(F)cc1)c1cc(C)c(NC(=O)OC)c(C)c1 has a documented half-life of 1.72

---

- testName: Metabolic stability in dog liver microsomes assessed as intrinsic clearance
- Type: ADME, Canis lupus familiaris, Microsome
- measurementContext: read-out: CLH
valueKind: CLint scaled (mL/min/kg)
Form entry: value (mL/min/kg) — number only.

In plain terms, C#CCN(Cc1ccc(F)cc1)c1cc(C)c(NC(=O)OC)c(C)c1 has a documented CLint scaled of 97.2

---

- systemUnderTest: CYP1A2 (Homo sapiens, UniProt P05177)
- testName: Ratio of IC50 for human liver microsome CYP1A2 in absence of NADPH to IC50 for human liver microsome CYP1A2 in presence of NADPH
- measurementContext: liver microsomes, read-out: Ratio IC50
valueKind: IC50 shift

In plain terms, C#CCN(Cc1ccc(F)cc1)c1cc(C)c(NC(=O)OC)c(C)c1 has a documented IC50 shift of > 1.5

---

- testName: Metabolic stability in human liver microsomes assessed as intrinsic clearance
- Type: ADME, Microsome
- measurementContext: read-out: CLH
valueKind: CLint scaled (mL/min/kg)
Form entry: value (mL/min/kg) — number only.

In plain terms, C#CCN(Cc1ccc(F)cc1)c1cc(C)c(NC(=O)OC)c(C)c1 has a documented CLint scaled of 62.7

---

- systemUnderTest: Cytochrome P450 1A2 (Homo sapiens)
- Sequence (P05177 whole entry): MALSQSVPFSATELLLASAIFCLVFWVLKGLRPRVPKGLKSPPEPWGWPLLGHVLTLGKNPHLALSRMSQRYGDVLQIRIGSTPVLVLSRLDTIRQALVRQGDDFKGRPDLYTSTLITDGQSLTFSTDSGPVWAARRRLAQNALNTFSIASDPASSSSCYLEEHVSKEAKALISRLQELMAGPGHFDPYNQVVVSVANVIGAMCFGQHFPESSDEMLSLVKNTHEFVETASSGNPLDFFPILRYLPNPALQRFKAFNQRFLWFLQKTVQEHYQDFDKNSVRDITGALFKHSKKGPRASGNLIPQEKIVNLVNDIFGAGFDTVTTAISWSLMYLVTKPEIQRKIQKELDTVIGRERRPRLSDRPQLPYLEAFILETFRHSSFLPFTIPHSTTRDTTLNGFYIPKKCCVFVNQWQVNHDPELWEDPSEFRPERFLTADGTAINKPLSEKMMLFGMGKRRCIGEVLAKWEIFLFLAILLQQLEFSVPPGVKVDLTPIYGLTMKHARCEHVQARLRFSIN
- testName: Time dependent inhibition of human liver microsome CYP1A2 preincubated for 0.5 hrs in presence of NADPH followed by substrate addition by LC-MS/MS method
- Format: ADME, microsomes
valueKind: IC50 (µM)
Form entry: value (µM) — number only.

In plain terms, C#CCN(Cc1ccc(F)cc1)c1cc(C)c(NC(=O)OC)c(C)c1 has a documented IC50 of 2.53

---

- testName: Cmax in Kunming mouse plasma at 5 mg/kg, po measured upto 24 hrs by LC-MS/MS method
- Format: ADME, organism-based
- Design: dose 5 mg/kg, time < 24 hrs, route po
valueKind: Cmax (µg/mL)
Form entry: value (µg/mL) — number only.

In plain terms, C#CCN(Cc1ccc(F)cc1)c1cc(C)c(NC(=O)OC)c(C)c1 has a documented Cmax of 0.134

---

- testName: Ratio of AUC(0 to t) in Sprague-Dawley rat brain to plasma at 6 mg/kg, po measured upto 24 hrs by LC-MS/MS method
- Format: ADME, organism-based
- measurementContext: brain and plasma
valueKind: Kp at 24 h
Number only, please.

In plain terms, C#CCN(Cc1ccc(F)cc1)c1cc(C)c(NC(=O)OC)c(C)c1 has a documented Kp at 24 h of 2.86

---

- Species: Mus musculus
- testName: Anticonvulsant activity in C57BL/6 mouse 6 Hz seizure model at 44 mA measured after 1 hr
- Assay type: functional
valueKind: ED50 (mg/kg)
Form entry: value (mg/kg) — number only.

- CC[C@H](C(N)=O)N1CCCC1=O [LEVITIRACETAM]: 376
- CCOC(=O)Nc1ccc(NCc2ccc(F)cc2)cc1N [EZOGABINE]: 102

Now for a further compound.
In plain terms, C#CCN(Cc1ccc(F)cc1)c1cc(C)c(NC(=O)OC)c(C)c1 has a documented ED50 of 29.9

---

- testName: Metabolic stability in mouse liver microsomes assessed as intrinsic clearance
- Assay type: ADME, Microsome
- measurementContext: read-out: CLH
valueKind: CLint scaled

In plain terms, C#CCN(Cc1ccc(F)cc1)c1cc(C)c(NC(=O)OC)c(C)c1 has a documented CLint scaled of 438 mL/min/kg

---

- testName: Tmax in Sprague-Dawley rat at 2 mg/kg, po measured upto 24 hrs by LC-MS/MS method
- Type: ADME, organism-based
- measurementContext: in vivo
valueKind: Tmax
Write the numeric value and follow it with the unit.

In plain terms, C#CCN(Cc1ccc(F)cc1)c1cc(C)c(NC(=O)OC)c(C)c1 has a documented Tmax of 30 min

---

- testName: Half life in Sprague-Dawley rat at 6 mg/kg, po measured upto 24 hrs by LC-MS/MS method
- Type: ADME, organism-based
- measurementContext: in vivo
valueKind: half-life (h)
Form entry: value (h) — number only.

In plain terms, C#CCN(Cc1ccc(F)cc1)c1cc(C)c(NC(=O)OC)c(C)c1 has a documented half-life of 2.36

---

Recorded Activity by entry
- systemUnderTest: Potassium voltage-gated channel subfamily KQT member 2 (Rattus norvegicus)
- testName: Agonist activity at rat Kv7.2 channel expressed in CHO cells assessed as amplitude change of outward current at 10 uM by whole cell patch clamp based electrophysiological method
- measurementContext: filed as agonist
Number only, please.

Would you please look over these solved cases?
- C#CCN(Cc1ccccc1F)c1ccc(NC(=O)OC)cc1: 2.31
- C#CCN(Cc1ccc(F)cc1)c1ccc(NC(=O)OC)c(C)c1: 4.8
- C#CCN(Cc1ccc(F)cc1)c1ccc(NC(=O)OCC2COC(C)(C)O2)cc1 (stereo unspecified): 2.11

Result for C#CCN(Cc1ccc(F)cc1)c1ccc(NC(=O)OC)cc1 , tested on Potassium voltage-gated channel subfamily KQT member 2 (Rattus norvegicus), Activity: 3.27

Result for C#CCN(Cc1ccc(F)cc1)c1ccccc1NC(=O)OC , tested on Potassium voltage-gated channel subfamily KQT member 2 (Rattus norvegicus), Activity: 0.95

Result for C#CCN(Cc1ccc(F)cc1)c1ccc(NC(C)=O)cc1 , tested on Potassium voltage-gated channel subfamily KQT member 2 (Rattus norvegicus), Activity: 1.8

Result for C#CCN(Cc1ccc(F)cc1)c1ccc(NC(=O)OC)c(OC(F)(F)F)c1 , tested on Potassium voltage-gated channel subfamily KQT member 2 (Rattus norvegicus), Activity: 1.24

Result for C#CCN(Cc1ccc(F)cc1)c1ccc(NC(=O)OC)c(C#N)c1 , tested on Potassium voltage-gated channel subfamily KQT member 2 (Rattus norvegicus), Activity: 0.52

Result for C#CCN(Cc1ccccc1Cl)c1ccc(NC(=O)OC)cc1 , tested on Potassium voltage-gated channel subfamily KQT member 2 (Rattus norvegicus), Activity: 2.29

Result for C#CCN(Cc1ccc(F)cc1)c1ccc(NC(=O)OC)cc1C , tested on Potassium voltage-gated channel subfamily KQT member 2 (Rattus norvegicus), Activity: 1.4

Result for C#CCN(Cc1ccc(F)cc1)c1ccc(NC(=O)OC)cc1Cl , tested on Potassium voltage-gated channel subfamily KQT member 2 (Rattus norvegicus), Activity: 1.19

Result for C#CCN(Cc1ccc(F)cc1)c1ccc(NC(=O)OCC=C)cc1 , tested on Potassium voltage-gated channel subfamily KQT member 2 (Rattus norvegicus), Activity: 1.01

Result for C#CCN(Cc1ccc(Br)cc1)c1ccc(NC(=O)OC)cc1 , tested on Potassium voltage-gated channel subfamily KQT member 2 (Rattus norvegicus), Activity: 3.75

---

- systemUnderTest: UniProt O88943
- Sequence (O88943 whole entry): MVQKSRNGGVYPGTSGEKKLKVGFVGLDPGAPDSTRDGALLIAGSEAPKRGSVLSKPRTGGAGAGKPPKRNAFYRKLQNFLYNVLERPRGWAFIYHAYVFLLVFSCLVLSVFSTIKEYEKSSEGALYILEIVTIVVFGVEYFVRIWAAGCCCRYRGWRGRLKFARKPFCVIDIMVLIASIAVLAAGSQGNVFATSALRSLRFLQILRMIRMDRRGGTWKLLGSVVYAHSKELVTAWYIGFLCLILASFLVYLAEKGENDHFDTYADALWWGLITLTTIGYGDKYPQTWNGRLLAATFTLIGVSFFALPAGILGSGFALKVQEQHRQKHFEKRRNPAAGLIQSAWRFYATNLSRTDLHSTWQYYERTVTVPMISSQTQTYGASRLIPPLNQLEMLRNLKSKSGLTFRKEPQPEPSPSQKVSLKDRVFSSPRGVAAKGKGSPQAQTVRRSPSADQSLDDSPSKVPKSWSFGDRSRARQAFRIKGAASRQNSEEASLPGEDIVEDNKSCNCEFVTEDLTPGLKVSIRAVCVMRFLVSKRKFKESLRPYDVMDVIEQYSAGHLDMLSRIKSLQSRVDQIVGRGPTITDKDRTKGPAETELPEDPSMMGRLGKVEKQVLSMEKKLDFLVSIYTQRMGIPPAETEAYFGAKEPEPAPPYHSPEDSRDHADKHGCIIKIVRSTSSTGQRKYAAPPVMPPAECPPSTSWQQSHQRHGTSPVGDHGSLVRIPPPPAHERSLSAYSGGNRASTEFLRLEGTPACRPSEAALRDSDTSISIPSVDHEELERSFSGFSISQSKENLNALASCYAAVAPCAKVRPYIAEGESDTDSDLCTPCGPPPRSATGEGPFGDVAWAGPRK
- testName: Agonist activity at rat Kv7.2 channel expressed in CHO cells assessed as amplitude change of outward current at 10 uM by whole cell patch clamp based electrophysiological method
- measurementContext: filed as agonist
Recorded Activity by entry
Number only, please.

Would you please look over these solved cases?
- C#CCN(Cc1ccc(F)cc1)c1ccc(NC(=O)OC(C)(C)C)cc1: 1.05
- C#CCN(Cc1ccc(F)cc1)c1ccc(NC(=O)OCC)cc1: 1.99
- C#CCN(Cc1ccc(F)cc1)c1ccc(NC(=O)OC)c(Cl)c1: 1.09
- C#CCN(Cc1ccc(F)cc1)c1ccc(NC(=O)OC)cc1C#N: 1.94
- C#CCN(Cc1ccc(F)cc1)c1ccc(NC(=O)OC)cc1F: 1.39

In plain terms, C#CCN(Cc1ccc(F)c(F)c1)c1ccc(NC(=O)OC)cc1 has a documented Activity of 2.52

In plain terms, C#CCN(Cc1ccc(F)cc1)c1c(C)cc(NC(=O)OC)cc1C has a documented Activity of 0.72

In plain terms, C#CCN(Cc1ccc(F)cc1)c1ccc(NC(=O)OCc2ccccc2)cc1 has a documented Activity of 2.09
